All figures here come from patent US20250011410A1.

# target entity: T1, canine NGF tagged at the C-terminus with the Flag tag (canine, UniProt A0A8I3PYI3 122-241)
# T1 construct: mature; Expressed with baculovirus technology; also called feline NGF (processed form identical)
# T1 sequence (A0A8I3PYI3 entry or part of it): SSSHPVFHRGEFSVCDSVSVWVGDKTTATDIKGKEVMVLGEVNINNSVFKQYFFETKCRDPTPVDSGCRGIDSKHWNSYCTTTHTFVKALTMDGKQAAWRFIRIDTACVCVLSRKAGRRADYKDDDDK
# assay: SPR off-rate assay, Fab-SASA on BSA chip
measurement type: Kd

Worked examples follow.
1) AHF17599 (Fab, V domains shown, not shown: small tags and cut ends) VH: DVQLVESGGDLVKPGGSLRLTCVASGLSLTSSSMVWVRQAPGKGLQWVSTIYSNRGTYYTDSVKGRFTISKDNAENTLYLQMNNLKTEDTATYYCASIYYYDADYLHWYFDFWGQGALVTVSS VL: EIQMTQSPTSLSASVGDRVTITCRASEGIANNLSWYQQTPGKAPKLLIYATSVLHSGVPSRFSGSGSGTDFTLTISSLQPEDFATYYCQQGYKWPLTFGGGTKLEITR	≤ 4.72 pM
2) AHF17593 (Fab, V domains shown, not shown: small tags and cut ends, Fab-SASA, combinatorial library) VH: DVQLVESGGDLVKPGGSLRLTCVASGLSLTSSSMVWVRQAPGKGLQWVSTIYSNRGTYYTDSVKGRFTISKDNAENTLYLQMNNLKTEDTATYYCAQIYYYDADYLHWYFDFWGQGALVTVSS VL: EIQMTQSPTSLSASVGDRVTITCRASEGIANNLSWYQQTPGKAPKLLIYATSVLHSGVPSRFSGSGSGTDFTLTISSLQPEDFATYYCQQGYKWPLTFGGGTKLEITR	≤ 6.13 pM
3) AHF17591 (Fab, V domains shown, not shown: small tags and cut ends) VH: DVQLVESGGDLVKPGGSLRLTCVASGLSLTSSSMVWVRQAPGKGLQWVSTIYSNRGTYYTDSVKGRFTISKDNAENTLYLQMNNLKTEDTATYYCASIYYYDADYLHWYFDEWGQGALVTVSS VL: EIQMTQSPTSLSASVGDRVTITCRASEGIANNLSWYQQTPGKAPKLLIYATSILHSGVPSRFSGSGSGTDFTLTISSLQPEDFATYYCQQGYKWPLTFGGGTKLEITR	≤ 3.73 pM

input: Consider the binder AHF17607 (Fab, V domains shown, not shown: small tags and cut ends) VH: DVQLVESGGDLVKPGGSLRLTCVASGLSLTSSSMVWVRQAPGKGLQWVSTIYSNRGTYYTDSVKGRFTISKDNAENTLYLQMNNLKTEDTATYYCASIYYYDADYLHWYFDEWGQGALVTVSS VL: EIQMTQSPTSLSASVGDRVTITCRASEGISNNLSWYQQTPGKAPKLLIYATSILHSGVPSRFSGSGSGTDFTLTISSLQPEDFATYYCQQGYKWPLTFGGGTKLEITR and give its recorded Kd.
output: ≤ 4.42 pM
